B1: C9orf9 (parent)
chain: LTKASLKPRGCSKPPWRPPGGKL

Variants of: B1
Experiment: protein stability index of a GFP-peptide fusion (GPS, HEK-293T) (PSI 1-6); higher = more stable;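 note: lentivirally expressed fusions sorted by FACS into six bins by GFP to DsRed ratio, PSI derived from sequencing read proportions per bin multiplied by bin number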
Conditions: c terminus: native
MEASURE: protein stability index
One number for each entry.

C11L; 2.39
G20M; 2.13

Kindly give each listed record's protein stability index.
1. L1N
2. P18K

## Result
[3.8, 2.85]

Kindly give each listed record's protein stability index.
1. S12M
2. P14S
3. K22G
4. L1K
5. R9H
6. R17F
7. P15W
8. R9A

## Result
1: 5.53; 2: 1.38; 3: 2.1; 4: 1.85; 5: 1.35; 6: 3.37; 7: 1.16; 8: 1.7

Kindly give each listed record's protein stability index.
1. L6S
2. R9Q
3. P15R
4. K13M

## Result
1. 2.47
2. 2.68
3. 2.34
4. 2.87

Kindly give each listed record's protein stability index.
1. K22N
2. G20Y
3. K7V
4. A4D
5. K13C
6. S5D
7. G21V
8. G10Y

## Result
[3.08, 2.56, 2.25, 1.25, 2.9, 1.19, 3.39, 2.25]

Kindly give each listed record's protein stability index.
1. P19I
2. K3N
3. R17K
4. T2Q
5. S5P
6. P19V

## Result
[1.24, 2.08, 3.26, 1.32, 2.21, 1.78]

Kindly give each listed record's protein stability index.
1. R17M
2. G10L

## Result
3.49
2.96

Kindly give each listed record's protein stability index.
1. A4L
2. T2D
3. K22C
4. L1Q

## Result
[1.08, 1.78, 3.7, 3.17]
